- Test system: fibroblast cells (3T6) expressing full-length tau (T40) and the 12 kD PHF-core tau fragment
- test-description: Cell-based assay for establishing EC50 (inhibition of generation of the 12 kD tau fragment)
pEC50: −log10 of the molar value.
Given measured pEC50, output 1 (yes) if it is greater than or equal to 7 and 0 (no) if not.

INSERT INTO measurements (molecule, label) VALUES
  ('O=[N+]([O-])[O-].c1cc2cc3ccc(N4CCCCC4)cc3[o+]c2cc1N1CCCCC1 [Compound AG, 3,6-Bis-piperidino-xanthylium nitrate]', '0 (no)'),
  ('CCN(CC)c1ccc(-c2c3ccc(=[N+](CC)CC)cc-3oc3cc(N(CC)CC)ccc23)cc1', '0 (no)'),
  ('Cl.Cl.c1cc2c(cc1N1CCOCC1)Oc1cc(N3CCOCC3)ccc1C2 [Compound AI, dihydrochloride]', '0 (no)'),
  ('CCN(CC)c1ccc2c(-c3ccc([N+](=O)[O-])cc3)c3ccc(N(CC)CC)cc3[o+]c2c1.O=[N+]([O-])[O-] [Compound AD, nitrate]', '0 (no)'),
  ('CCN(CC)c1ccc2cc3ccc(N(CC)CC)cc3[s+]c2c1.[I-]', '0 (no)');

Assess whether reported pEC50 for Cc1cc(N(C)C)cc2[s+]c3cc(N(C)C)cc(C)c3nc12 [DMMTC, reference compound] sits at 7 or higher.
1 (yes)

Assess whether reported pEC50 for CN(C)c1ccc2nc3ccc(=[N+](C)C)cc-3oc2c1 [O, 3,7-bis(dimethylamino)oxazinium chloride] sits at 7 or higher.
0 (no)

Assess whether reported pEC50 for "CCc1c2ccc(N(CC)CC)cc2[o+]c2cc(N(CC)CC)ccc12.[Cl-]" sits at 7 or higher.
1 (yes)

Assess whether reported pEC50 for "CC[N+](CC)=c1ccc2nc3ccc(N(C)C)cc3oc-2c1" sits at 7 or higher.
0 (no)

Assess whether reported pEC50 for "FC(F)(F)C1=c2cc3c4c(c2Oc2c1cc1c5c2CCCN5CCC1)CCC[N+]=4CCC3" sits at 7 or higher.
0 (no)

Assess whether reported pEC50 for "CN(C)c1ccc2cc3ccc(N(C)C)cc3[s+]c2c1.[Cl-].[Cl-].[Cl-].[Zn+2]" sits at 7 or higher.
0 (no)

---

- tested-system: tau-tau binding: truncated tau (residues 297-390; dGA) on solid phase, full-length tau (T40) in aqueous phase (Homo sapiens, UniProt P10636)
- Construct: truncated tau (residues 297-390; dGA); full-length tau (T40) was added in the aqueous phase
- Sequence (P10636 614-707): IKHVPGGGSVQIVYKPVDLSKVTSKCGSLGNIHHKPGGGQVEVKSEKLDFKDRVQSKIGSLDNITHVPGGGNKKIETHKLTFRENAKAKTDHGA
- test-description: In vitro assay for establishing B50 (tau-tau binding)
- stated-conditions: concentration required to inhibit tau-tau binding by 50%; mean ± SE, number of replications in parentheses; NE = no effect when tested to 500 μM
// values below are reported log10 IC50
Hey, these are logged values: log10 of IC50, µM being the unit before logging.

INSERT INTO measurements (compound, observed_result) VALUES
  ('CCN(CC)c1ccc(-c2c3ccc(=[N+](CC)CC)cc-3oc3cc(N(CC)CC)ccc23)cc1', 2.11),
  ('CN(C)c1ccc2nc3ccc(=[N+](C)C)cc-3[nH]c2c1', 1.97),
  ('CCN(CC)c1ccc2nc3ccc(N(C)C)cc3nc2c1.Cl', 2.80),
  ('O=[N+]([O-])[O-].c1cc2cc3ccc(N4CCCC4)cc3[o+]c2cc1N1CCCC1 [Compound AH, 3,6-Bis-pyrrolidino-xanthylium nitrate]', 2.11);

Output log10 IC50 of O=[N+]([O-])[O-].c1cc2cc3ccc(N4CCCCC4)cc3[o+]c2cc1N1CCCCC1 [Compound AG, 3,6-Bis-piperidino-xanthylium nitrate]
2.41

Output log10 IC50 of "CN(C)c1ccc2cc3ccc(N(C)C)cc3[s+]c2c1.[Cl-].[Cl-].[Cl-].[Zn+2]"
1.34

Output log10 IC50 of Cc1cc(N(C)C)cc2[s+]c3cc(N(C)C)cc(C)c3nc12 [DMMTC, reference compound]
0.53

---

- tested-system: tau-tau binding: truncated tau (residues 297-390; dGA) on solid phase, full-length tau (T40) in aqueous phase (Homo sapiens)
- Construct: truncated tau (residues 297-390; dGA); full-length tau (T40) was added in the aqueous phase
- test-description: In vitro assay for establishing B50 (tau-tau binding)
- stated-conditions: concentration required to inhibit tau-tau binding by 50%; mean ± SE, number of replications in parentheses; NE = no effect when tested to 500 μM
Where a name gives a salt, the structure may show the parent alone.
// values below are reported IC50

// below: answered compounds
INSERT INTO measurements (compound, observed_result) VALUES
  ('Cl.Cl.c1cc2c(cc1N1CCOCC1)Oc1cc(N3CCOCC3)ccc1C2 [Compound AI, dihydrochloride]', '> 500 µM'),
  ('CCN(CC)c1ccc2cc3ccc(N(CC)CC)cc3[s+]c2c1.[I-]', '> 500 µM');

Next item in the queue.
Output IC50 of CCN(CC)c1ccc2c(c1)Oc1cc(N(CC)CC)ccc1C2 [Compound H, dihydrochloride]
> 500 µM

---

- Tested on: fibroblast cells (3T6) expressing full-length tau (T40) and the 12 kD PHF-core tau fragment
- test-description: Cell-based assay for establishing EC50 (inhibition of generation of the 12 kD tau fragment)
- Description: In essence, fibroblast cells (3T6) express full-length tau (“T40”) under control of an inducible promotor, and low constitutive levels of the PHF-core tau fragment (12 kD fragment). This is referred to as the EC50 value.
value-type: pEC50
The read-out pEC50 is expressed as -log10 of concentration in moles per litre.

// below: answered molecules
INSERT INTO assay_data (molecule, value_type, observed_result) VALUES
  ('CCN(CC)c1cc2oc3cc(N(CC)CC)cc4oc5cc(=[N+](CC)CC)cc6oc(c1)c2c(c34)c65', 'pEC50', 6.89),
  ('O=[N+]([O-])[O-].c1cc2cc3ccc(N4CCCC4)cc3[o+]c2cc1N1CCCC1 [Compound AH, 3,6-Bis-pyrrolidino-xanthylium nitrate]', 'pEC50', 6.59),
  ('CC1(C)CCN2CCC(C)(C)c3c4c(cc1c32)C=c1cc2c3c(c1O4)C(C)(C)CC[N+]=3CCC2(C)C', 'pEC50', 7.29);

Next item in the queue.
Output pEC50 of Cl.Cl.c1cc2c(cc1N1CCCCC1)Oc1cc(N3CCCCC3)ccc1C2 [Compound AK, dihydrochloride]
6.19
